Quick list: IC50 per entry.
- System tested: CYP3A4 (Homo sapiens)
- Sequence (P08684 whole entry): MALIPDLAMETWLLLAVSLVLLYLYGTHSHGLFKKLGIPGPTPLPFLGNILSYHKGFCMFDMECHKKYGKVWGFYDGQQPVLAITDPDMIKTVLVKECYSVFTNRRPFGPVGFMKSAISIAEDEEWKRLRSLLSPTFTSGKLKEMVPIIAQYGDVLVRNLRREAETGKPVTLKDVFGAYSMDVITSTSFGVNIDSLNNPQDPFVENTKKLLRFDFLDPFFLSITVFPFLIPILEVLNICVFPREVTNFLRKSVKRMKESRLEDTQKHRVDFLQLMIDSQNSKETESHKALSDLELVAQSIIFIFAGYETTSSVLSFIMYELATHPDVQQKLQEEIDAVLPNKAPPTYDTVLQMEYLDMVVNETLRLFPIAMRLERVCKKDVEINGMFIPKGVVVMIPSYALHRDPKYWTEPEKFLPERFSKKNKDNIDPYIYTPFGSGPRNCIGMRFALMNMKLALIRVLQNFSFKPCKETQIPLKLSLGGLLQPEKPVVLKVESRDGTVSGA
- Experiment: Determination of CYP3A4 inhibitory activity (human liver microsome, Luciferin-IPA)
- Condition details: CYP3A4 IC50 (nM), 37° C. 11 minutes

[
  {
    "Compound": "COc1cc(NC(=O)c2cc(=O)c3ccccc3o2)c(C(=O)Nc2ccc(CCNCc3ccc4c(cnn4C)c3)cc2)cc1OC",
    "IC50": "> 1000 nM"
  },
  {
    "Compound": "COc1cncc(CN(CCc2ccc(NC(=O)c3cc(OC)c(OC)cc3NC(=O)c3cc(=O)c4ccccc4o3)cc2)Cc2ccc3c(cnn3C(C)=O)c2)c1",
    "IC50": "250 to 500 nM"
  },
  {
    "Compound": "CCn1cncc1CN(CCc1ccc(NC(=O)c2cc(OC)c(OC)cc2NC(=O)c2cnc3ccccc3n2)cc1)Cc1ccc2c(cnn2C)c1",
    "IC50": "100 to 250 nM"
  },
  {
    "Compound": "CN(CCc1ccc(NC(=O)c2ccc(C(=O)OCc3cscn3)cc2NC(=O)c2cc(=O)c3ccccc3o2)cc1)Cc1ccc2c(cnn2C)c1",
    "IC50": "100 to 250 nM"
  },
  {
    "Compound": "CN(CCc1ccc(NC(=O)c2ccc(C(=O)OCc3cncs3)cc2NC(=O)c2cnc3ccccc3c2)cc1)Cc1ccc2c(cnn2C)c1",
    "IC50": "500 to 1000 nM"
  },
  {
    "Compound": "COc1cc(NC(=O)c2cc(=O)c3ccccc3o2)c(C(=O)Nc2ccc(CCN(Cc3cccnc3)Cc3ccc4cnn(C)c4c3)cc2)cc1OC [Compound 32]",
    "IC50": "< 100 nM"
  },
  {
    "Compound": "COC(=O)c1ccc(C(=O)Nc2ccc(CCN(C)Cc3ccc4c(cnn4C)c3)cc2)c(NC(=O)c2cc(=O)c3ccccc3o2)c1",
    "IC50": "> 1000 nM"
  },
  {
    "Compound": "COc1cc(NC(=O)c2cnc3ccccc3n2)c(C(=O)Nc2ccc(CCN(Cc3cncc(C)c3)Cc3ccc4c(cnn4C)c3)cc2)cc1OC",
    "IC50": "100 to 250 nM"
  },
  {
    "Compound": "COc1cc(NC(=O)c2cc(=O)c3ccccc3o2)c(C(=O)Nc2ccc(CCN(Cc3ccc4c(cnn4C)c3)Cc3ccc[n+]([O-])c3)cc2)cc1OC",
    "IC50": "> 1000 nM"
  },
  {
    "Compound": "COc1cc(NC(=O)c2cc(=O)c3ccccc3o2)c(C(=O)Nc2ccc(CCN(Cc3ccncc3)Cc3ccc4cnn(C)c4c3)cc2)cc1OC",
    "IC50": "< 100 nM"
  },
  {
    "Compound": "CCN(CCc1ccc(NC(=O)c2cc(OC)c(OC)cc2NC(=O)c2cc(=O)c3ccccc3o2)cc1)Cc1ccc2c(cnn2CC)c1",
    "IC50": "> 1000 nM"
  },
  {
    "Compound": "COc1cc(NC(=O)c2cc(=O)c3ccccc3o2)c(C(=O)Nc2ccc(CCN(Cc3cccc(-n4ccnc4)c3)Cc3cccc(-n4ccnc4C)c3)cc2)cc1OC",
    "IC50": "250 to 500 nM"
  },
  {
    "Compound": "COc1ccc(CN(CCc2ccc(NC(=O)c3cc(OC)c(OC)cc3NC(=O)c3cc(=O)c4ccccc4o3)cc2)Cc2cncn2C)cc1OC",
    "IC50": "< 100 nM"
  },
  {
    "Compound": "COCCOc1cncc(CN(CCc2ccc(NC(=O)c3cc(OC)c(OC)cc3NC(=O)c3cc(=O)c4ccccc4o3)cc2)Cc2ccc3c(cnn3C)c2)c1",
    "IC50": "250 to 500 nM"
  },
  {
    "Compound": "COc1cc(NC(=O)c2cc(=O)c3ccccc3o2)c(C(=O)Nc2ccc(CCN(CC3=CNCN3C)Cc3ccc4cnn(C)c4c3)cc2)cc1OC",
    "IC50": "> 1000 nM"
  },
  {
    "Compound": "COc1cc(NC(=O)c2cc(=O)c3ccccc3o2)c(C(=O)Nc2ccc(CCN(Cc3ccc(-c4ccncc4)cc3)Cc3ccc4c(cnn4C)c3)cc2)cc1OC",
    "IC50": "> 1000 nM"
  },
  {
    "Compound": "CCn1ncc2cc(CN(CCc3ccc(NC(=O)c4cc(OC)c(OC)cc4NC(=O)c4cc(=O)c5ccccc5o4)cc3)Cc3cccnc3)ccc21",
    "IC50": "250 to 500 nM"
  },
  {
    "Compound": "CCOc1cncc(CN(CCc2ccc(NC(=O)c3cc(OC)c(OC)cc3NC(=O)c3cc(=O)c4ccccc4o3)cc2)Cc2ccc3c(cnn3C)c2)c1",
    "IC50": "100 to 250 nM"
  }
]

Origin of values: patent US20220106301A1
